# credit: PubChem BioAssay AID1159580

Assay: chemical genetic growth profiling, strain panel (AID 1159580);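 also: tested at 20 µM; growth read once vehicle control cultures reached saturation at 30 °C; lower values mean less growth of the strain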
Conditions: S. cerevisiae deletion strains, growth OD, locus YHR030C, strain SLT2, active compounds read low
Hit rate of the full screen: of about 5,500 compounds, about 2,000 (36%) were called active. Inconclusive results (about 18%) are left out. This is one part of the list.
Binary call on normalized growth with cut-off 0.9: strictly below means yes, and equality or higher means no.

COc1cc(/C=C2/SC(=S)NC2=O)cc(OC)c1OC | yes
CN(C)/C=C1/C(=O)NN=C1CSc1ccccn1 | no
O=[N+]([O-])c1ccc(-c2nn[nH]n2)cc1 | no
O=C(COC(=O)c1ccccc1C(=O)c1ccccc1)c1ccccc1 | yes
CC(C)S(=O)(=O)c1csc(C(N)=O)c1Cl | no
Cc1cccc(C(=O)c2ccccc2C(=O)O)c1 | no
COc1c2c(cc3c1OCO3)C13C=C[C@H](OC)CC1N(C2)CC3O (stereo partly specified) | no
Cc1ccc(N=Nc2c(C)[nH]n(C)c2=O)cc1 | yes
CC(=O)c1ccccc1C(=O)c1ccc(C(C)(C)C)cc1 | yes
CCOc1cccc(C(=O)c2ccc(O)c(O)c2O)c1 | no
COc1cccc(Nc2nc3ccccc3s2)c1 | yes
CC(=O)Oc1cccc(C(=O)O)c1OC(C)=O | no
COc1cc2nc(-c3cccs3)oc(=O)c2cc1OC | yes
O=C(c1cc2c(s1)-c1ccccc1CC2)N1CCN(Cc2ccccc2)CC1 | no
COc1cccc(NC(N)=S)c1 | no
S=C(Nc1ccc(Cl)cc1)Nc1ccc(Cl)cc1 | yes
CC(=O)Oc1ccccc1C(=O)O | no
CCCCCN(CCCCC)C(=O)C(CCC(=O)O)NC(=O)c1ccc(Cl)c(Cl)c1 (stereo unspecified) | no
O=C(Nc1cccnc1)c1cccc(Cl)c1Cl | no
CC(=O)c1cc2ccccc2oc1=O | no
COc1cc(N2C(=O)C=CC2=O)cc(OC)c1OC | yes
Cc1ccc2nc(-c3ccc([N+](=O)[O-])o3)oc(=O)c2c1 | yes
FC(F)(F)c1cc(-c2ccc(Cl)cc2)n[nH]1 | yes
NC1CC1c1ccccc1 (stereo unspecified) | no
CN(C)CCc1c[nH]c2ccc(C[C@H]3COC(=O)N3)cc12 | no
CC(C)(C)C(=O)c1sc2sc(C(=O)C(C)(C)C)c(N)c2c1N | yes
NC(=S)c1ccc(Oc2ccc(Cl)cc2)nc1 | yes
COc1cccc(NC(=O)NC2Cc3ccccc3C2)c1 | no
CC(C)(C)c1cc(-c2cc(C(F)(F)F)[nH]n2)c2c(c1)C(C)(C)CC2 | no
OCCN1CCN(CCCN2c3ccccc3Sc3ccc(C(F)(F)F)cc32)CC1 | no
COP(=O)(OC)OC(Br)C(Cl)(Cl)Br (stereo unspecified) | no
COC(=O)CSCCc1nc(-c2ccc([N+](=O)[O-])cc2)cs1 | yes
CCOC(=O)c1cnc2c(c(C)nn2C)c1Sc1nnc(SC)s1 | yes
CC(N)C(O)c1ccc(O)c(O)c1 (stereo unspecified) | no
N#C/C(=C\N(CCS(=O)(=O)c1ccc(Cl)cc1)Cc1cccs1)S(=O)(=O)c1ccc(Cl)cc1 | no
S=C(N/N=C\c1cccs1)NC1CC2CCC1C2 (stereo unspecified) | yes
CC(=O)c1cc2cc(Br)ccc2oc1=O | yes
COc1cc(/C=C2/N=C(c3ccccc3I)OC2=O)cc(OC)c1OC | no
N#Cc1ccc(Oc2ccc(Cl)cc2)nc1 | yes
CC(C)(C)c1ccc(-c2cc(N)c(C(N)=O)s2)cc1 | yes
Cc1[nH]n(C)c(=O)c1N=Nc1ccc(Cl)cc1 | yes
O=C1CCCN1c1ccc(Cl)c(Cl)c1 | yes
NCCc1cc(O)c(O)cc1O | no
Cc1ccc(OCc2n[nH]c(=S)n2Cc2ccccc2)c2c1CCC2 | yes
COc1cc(-c2coc3cc(O[C@@H]4O[C@H](CO)[C@@H](O)[C@H](O)[C@H]4O)c(OC)c(O)c3c2=O)cc(O)c1OC | no
COC(=O)c1scc(S(=O)(=O)C(C)C)c1N/N=C(/C#N)C(=O)c1ccccc1 | no
